metric: melting point

Worked cases, melting point given:
COc1ccc2ccc3c(c2c1)C(c1cc(OC)c(OC)c(OC)c1)C(C#N)=C(N)O3 (stereo not drawn) [4y]    260 to 261 °C
COc1ccc2ccc3c(c2c1)C(c1ccc(C(F)(F)F)cc1)C(C#N)=C(N)O3 (stereo not drawn) [4j]    212 to 214 °C

Would you kindly look at the next entry?
**Q:** Recall and state the measured melting point for COc1ccc2ccc3c(c2c1)C(c1cc(Br)cc(Br)c1)C(C#N)=C(N)O3 (stereo not drawn) [4s] .
**A:** 268 to 270 °C

###

Test system: HCT-116
test.protocol: MTT cell viability assay, HCT-116
Type: cell-based
condition.info: Homo sapiens, 24 h incubation, mean ± standard error
metric: IC50 (µM)

Worked cases, IC50 given:
COc1ccc2ccc3c(c2c1)C(c1ccc(I)cc1)C(C#N)=C(N)O3 (stereo not shown) [4h]    27.7
COc1ccc2ccc3c(c2c1)C(c1ccc(C(F)(F)F)cc1F)C(C#N)=C(N)O3 (stereo not shown) [4u]    14.7
COc1ccc2ccc3c(c2c1)C(c1cccc(Br)c1)C(C#N)=C(N)O3 (stereo not shown) [4f]    11.5
COc1ccc2ccc3c(c2c1)C(c1ccccc1Cl)C(C#N)=C(N)O3 (stereo not shown) [4b]    2.5
COc1ccc2ccc3c(c2c1)C(c1cc(Br)cc(Br)c1OC)C(C#N)=C(N)O3 (stereo not shown) [4z]    6.8

I: COc1ccc2ccc3c(c2c1)C(c1cccc(Cl)c1)C(C#N)=C(N)O3 (stereo not shown) [4c]
II: COc1ccc2ccc3c(c2c1)C(c1ccc(Cl)cc1)C(C#N)=C(N)O3 (stereo not shown) [4d]
**Q:** Given the two records I and II , choose the one whose IC50 value is lower. Respond with the label that goes with your answer.
**A:** II

1: COc1ccc2ccc3c(c2c1)C(c1ccccc1Br)C(C#N)=C(N)O3 (stereo not shown) [4e]
2: CC[C@]1(O)C[C@@H]2CN(CCc3c([nH]c4ccccc34)[C@@](C(=O)OC)(c3cc4c(cc3OC)N(C)[C@H]3[C@@](O)(C(=O)OC)[C@H](OC(C)=O)[C@]5(CC)C=CCN6CC[C@]43[C@@H]65)C2)C1 [Vinblastine, reference compound]
3: COc1ccc2ccc3c(c2c1)C(c1c(F)cccc1Cl)C(C#N)=C(N)O3 (stereo not shown) [4t]
**Q:** With regard to IC50, arrange the entries in ascending order, please. Answer format: the labels, in the requested order.
**A:** 2, 1, 3
(2: 3.2 µM, 1: 5.9 µM, 3: 96.5 µM)

###

System: HFL-1
test.protocol: Cytotoxicity against normal cell line HFL-1
Assay type: cell-based
condition.info: Homo sapiens, HFL1, 24 h, mean ± standard error
Measured pIC50, listed per entry for reference.
Scale note: pIC50 = -log10(concentration in M).

Worked cases, pIC50 given:
COc1ccc2ccc3c(c2c1)C(c1cc(Br)ccc1Br)C(C#N)=C(N)O3 (stereo not drawn) [4r]    4.42
COc1ccc2ccc3c(c2c1)C(c1ccccc1Cl)C(C#N)=C(N)O3 (stereo not drawn) [4b]    4.14
COc1ccc2ccc3c(c2c1)C(c1ccc(Cl)cc1Cl)C(C#N)=C(N)O3 (stereo not drawn) [4n]    4.14
COc1ccc2ccc3c(c2c1)C(c1ccc(C)cc1)C(C#N)=C(N)O3 (stereo not drawn) [4i]    4.15

**Q:** Recall and state the measured pIC50 for COc1ccc2ccc3c(c2c1)C(c1ccc(Cl)cc1)C(C#N)=C(N)O3 (stereo not drawn) [4d] .
**A:** 4.11

###

System: P-gp
test.protocol: P-gp content in MCF-7/ADR cell lysate by ELISA
Format: cell-based, human
condition.info: MCF-7/ADR lysate, 48 h
pIC50: −log10 of the molar value.
metric: pIC50

COc1ccc2ccc3c(c2c1)C(c1ccccc1Cl)C(C#N)=C(N)O3 (stereo not drawn)    4.57
COc1ccc2ccc3c(c2c1)C(c1cccc(Cl)c1)C(C#N)=C(N)O3 (stereo not drawn)    4.55
COc1ccc2ccc3c(c2c1)C(c1ccc(OC)c(OC)c1)C(C#N)=C(N)O3 (stereo not drawn)    4.49

###

System: P-gp
test.protocol: P-gp content in MCF-7/ADR cell lysate by ELISA
Assay type: cell-based, human
condition.info: Conc. 100 µM, MCF-7/ADR lysate, 48 h
Measured %Reduction of P-gp expression, listed per entry for reference.
Write the value in % as a bare number.

COc1ccc2ccc3c(c2c1)C(c1ccc(Cl)cc1)C(C#N)=C(N)O3 (stereo not drawn) [4d]    91
COc1ccc2ccc3c(c2c1)C(c1ccc(Cl)c(Cl)c1)C(C#N)=C(N)O3 (stereo not drawn) [4q]    76
COc1ccc2ccc3c(c2c1)C(c1ccccc1Cl)C(C#N)=C(N)O3 (stereo not drawn) [4b]    90
COc1ccc2ccc3c(c2c1)C(c1cccc(Cl)c1)C(C#N)=C(N)O3 (stereo not drawn) [4c]    84
COc1ccc2ccc3c(c2c1)C(c1ccc(F)cc1F)C(C#N)=C(N)O3 (stereo not drawn) [4k]    70

**Q:** Recall and state the measured %Reduction of P-gp expression for COc1ccc2ccc3c(c2c1)C(c1ccc(OC)c(OC)c1)C(C#N)=C(N)O3 (stereo not drawn) [4w] .
**A:** 79

###

Measured pIC50, listed per entry for reference.
Tested on: WI-38
test.protocol: Cytotoxicity against normal cell line WI-38
Type: cell-based
condition.info: Homo sapiens, 24 h, mean ± standard error
Scale note: pIC50 = -log10(concentration in M).

Worked cases, pIC50 given:
COc1ccc2ccc3c(c2c1)C(c1ccc(Cl)cc1)C(C#N)=C(N)O3 (stereo not drawn)    4.08
COc1ccc2ccc3c(c2c1)C(c1ccc(F)cc1)C(C#N)=C(N)O3 (stereo not drawn)    4.25
COc1ccc2ccc3c(c2c1)C(c1cc(OC)c(OC)c(OC)c1)C(C#N)=C(N)O3 (stereo not drawn)    4.52

**Q:** Recall and state the measured pIC50 for COc1ccc2ccc3c(c2c1)C(c1cc(Br)ccc1Br)C(C#N)=C(N)O3 (stereo not drawn) .
**A:** 4.47

**Q:** Recall and state the measured pIC50 for COc1ccc2ccc3c(c2c1)C(c1ccc(C(F)(F)F)cc1F)C(C#N)=C(N)O3 (stereo not drawn) .
**A:** 4.22

**Q:** Recall and state the measured pIC50 for COc1ccc2ccc3c(c2c1)C(c1ccc(F)cc1F)C(C#N)=C(N)O3 (stereo not drawn) .
**A:** 4.33

**Q:** Recall and state the measured pIC50 for COc1ccc2ccc3c(c2c1)C(c1ccc(OC)c(OC)c1)C(C#N)=C(N)O3 (stereo not drawn) .
**A:** 4.28

**Q:** Recall and state the measured pIC50 for COc1ccc2ccc3c(c2c1)C(c1ccc(Br)cc1)C(C#N)=C(N)O3 (stereo not drawn) .
**A:** 4.16

**Q:** Recall and state the measured pIC50 for COc1ccc2ccc3c(c2c1)C(c1cccc(Cl)c1)C(C#N)=C(N)O3 (stereo not drawn) .
**A:** 4.21

**Q:** Recall and state the measured pIC50 for COc1ccc2ccc3c(c2c1)C(c1ccccc1Cl)C(C#N)=C(N)O3 (stereo not drawn) .
**A:** 4.18

**Q:** Recall and state the measured pIC50 for COc1ccc2ccc3c(c2c1)C(c1cc(Br)cc(Br)c1OC)C(C#N)=C(N)O3 (stereo not drawn) .
**A:** 4.40

**Q:** Recall and state the measured pIC50 for COc1ccc2ccc3c(c2c1)C(c1ccc(Cl)cc1Cl)C(C#N)=C(N)O3 (stereo not drawn) .
**A:** 4.21

**Q:** Recall and state the measured pIC50 for COc1ccc2ccc3c(c2c1)C(c1ccc(Cl)c(Cl)c1)C(C#N)=C(N)O3 (stereo not drawn) .
**A:** 4.14

**Q:** Recall and state the measured pIC50 for COc1ccc2ccc3c(c2c1)C(c1ccccc1Br)C(C#N)=C(N)O3 (stereo not drawn) .
**A:** 4.23

**Q:** Recall and state the measured pIC50 for COc1ccc2ccc3c(c2c1)C(c1ccc(C)cc1)C(C#N)=C(N)O3 (stereo not drawn) .
**A:** 4.21

###

System: P-gp
test.protocol: P-gp content in MCF-7/ADR cell lysate by ELISA
Assay type: cell-based, human
condition.info: human, MCF-7/ADR cells (cell lysate), MCF-7/ADR lysate
metric: IC50 at 48 h

Worked cases, IC50 at 48 h given:
COc1ccc2ccc3c(c2c1)C(c1cccc(Cl)c1)C(C#N)=C(N)O3 (stereo not drawn)    18.7 to 34.6 µM
COc1ccc2ccc3c(c2c1)C(c1ccc(OC)c(OC)c1)C(C#N)=C(N)O3 (stereo not drawn)    18.7 to 34.6 µM

Would you kindly look at the next entry?
**Q:** Recall and state the measured IC50 at 48 h for COc1ccc2ccc3c(c2c1)C(c1ccccc1Cl)C(C#N)=C(N)O3 (stereo not drawn) .
**A:** 18.7 to 34.6 µM

###

metric: melting point

Worked cases, melting point given:
COc1ccc2ccc3c(c2c1)C(c1cc(Cl)ccc1Cl)C(C#N)=C(N)O3 (stereo not drawn)    268 to 269 °C
COc1ccc2ccc3c(c2c1)C(c1ccc(OC)c(OC)c1OC)C(C#N)=C(N)O3 (stereo not drawn)    239 to 240 °C
COc1ccc2ccc3c(c2c1)C(c1ccc(I)cc1)C(C#N)=C(N)O3 (stereo not drawn)    227 to 228 °C
COc1ccc2ccc3c(c2c1)C(c1c(Cl)cccc1Cl)C(C#N)=C(N)O3 (stereo not drawn)    321 to 322 °C
COc1ccc2ccc3c(c2c1)C(c1ccc(F)cc1F)C(C#N)=C(N)O3 (stereo not drawn)    255 to 256 °C

Would you kindly look at the next entry?
**Q:** Recall and state the measured melting point for COc1ccc2ccc3c(c2c1)C(c1cccc(Cl)c1)C(C#N)=C(N)O3 (stereo not drawn) .
**A:** 262 to 263 °C
